Origin of the recorded values: PubChem BioAssay (NCI)

# Tested on: OVCAR-4 ovarian
# ASSAY NOTES: NCI-60 one-dose screen, 48 h
# CONDITION CONTEXT: 10 µM
The panel holds about 83,000 compounds, 20% with a hit somewhere; the sample as a whole holds those more often. Activity calls are given as the source filed them. The calls were made as follows: active = growth percent below 10; inactive = the rest.
Possible outcomes: 1.0 for active, 0.0 for inactive

MOLECULE	ASSIGNED LABEL
CC1=CC2OC34COC3CC(OC(=O)C(F)(F)F)C4(C)C2(C)CC1 (stereo unspecified)	0.0
CCN(CC)c1ccc(/C=C/C2=[N+](C)c3ccccc3C2(C)C)c(C)c1	0.0
COc1cc2c3c(cccc3c1)C(=O)N(CCN1CCCC1)C2=O	0.0
CCc1ccc(Nc2cc(C)nc3nc(C)nn23)cc1	1.0
CC(C)C[C@H](NC(=O)CCn1ccc2ccccc2c1=O)B(O)O	0.0
O=C(O)CCCCSCCCCC(=O)O	0.0
C=CCc1cc(Nc2c3ccc(Cl)cc3nc3ccc(OC)cc23)cc(CN(CC)CC)c1O	1.0
O=c1oc2cc(OS(=O)(=O)C3CC3)ccc2c2c1CCCCCC2	0.0
COc1cc(-c2c(C#N)c(N)n3c(nc4ccccc43)c2C#N)cc(Br)c1OC	1.0
COc1cc(-c2nc3ccccc3[nH]2)ccc1OCC(=O)N=Nc1c(O)[nH]c2ccccc12	0.0
CC(=O)Nc1ccc(Sc2ccc(NC(C)=O)cc2)cc1	0.0
O=S(=O)(NCl)c1ccccc1	0.0
O=C(N/N=c1/ccoc2cccnc12)N1CCN(c2ncccn2)CC1	0.0
COc1ccccc1CNCCCN1C(=O)c2ccc3c4c(ccc(c24)C1=O)C(=O)N(CCCNCCNCCCN)C3=O	1.0
S=c1c2ncccc2c(-c2ccccn2)nn1Cc1ccccn1	0.0
CCCCCCCCCCCCCCCCn1cc[n+](C)c1	1.0

====

# System: SK-MEL-2 melanoma
# ASSAY NOTES: NCI-60 one-dose screen, 48 h (100 = growth as untreated, 0 = no growth, -100 = all killed)
# CONDITION CONTEXT: 10 µM
Compounds without any hit were thinned out: in the full panel of roughly 83,000, 20% have a hit.
Measured growth values are reported for all entries that follow.

MOLECULE	TARGET UNDER TEST	growth [%]
CCCCOCCOCCOCc1cc2c(cc1Br)OCO2	SK-MEL-2 melanoma	92
CCc1ccc(-c2nnc(COc3ccc(-c4nc5cc(Cl)c(Cl)cc5[nH]4)cc3OC)o2)cc1	SK-MEL-2 melanoma	87.8
CCOC(=S)Sc1ccc([N+](=O)[O-])cc1[N+](=O)[O-]	SK-MEL-2 melanoma	91.4
CCOC(=O)c1c(O)c2cc(-c3ccccc3)nc(OCC)c2c(=O)n1C	SK-MEL-2 melanoma	87.9
COc1ccc(/C=C2\CCC3C(CCCC34OCCO4)C2=O)cc1 (stereo unspecified)	SK-MEL-2 melanoma	88.4
Cc1cc(O)c(C2=NN(c3ccc(S(N)(=O)=O)cc3)C(c3ccc(N(C)C)cc3)C2)c(C)c1Cl (stereo unspecified)	SK-MEL-2 melanoma	92.5

====

# System: SNB-75 CNS
# ASSAY NOTES: NCI-60 one-dose screen, 48 h (100 = growth as untreated, 0 = no growth, -100 = all killed)
# CONDITION CONTEXT: 10 µM
About 83,000 compounds went through this panel and 20% of them were active in at least one assay; those are over-represented in the sample as a whole.

MOLECULE	UNIT TEXT	growth
C#CCn1c(-c2cccc(OCCCCl)c2)nc2c1c(=O)n(C)c(=O)n2C	%	89
CCCCCCCCCCCC(c1ccccc1)N(C)C (stereo unspecified)	%	89.5
COc1cc(/C=C/C(=O)c2cc(-c3ccccc3)ccc2O)cc(OC)c1OC	%	93.1
CCN(CC)CCCOC(=O)Nc1ccccc1Cl	%	120
CCCCOCCOCCOCc1cc2c(cc1Br)OCO2	%	99.7
CCOc1ccc2c(c1)CC[C@@H]1[C@@H]2CC[C@]2(C)[C@@H](O)[C@@H](O)C[C@@H]12	%	107
CCCCCCN=C(N)CCCCCCCCCCC(N)=NCCCCCC	%	23.8
C=CCN1C(=O)/C(=C\c2ccc3c(c2)CCC3)SC1=S	%	99.9
C[N+]1=C(/C=C/c2ccc(I)cc2)C(C)(C)c2ccccc21	%	95.9
COc1ccc2nc(C)cc(Nc3ccc(Cl)cc3)c2c1	%	102
O=C(OCc1ncc(-c2ccc(C(F)(F)F)cc2)c(NC2CCCCCC2)n1)c1c(F)c(F)c(F)c(F)c1F	%	76.1
O=C(Nc1cccc([N+](=O)[O-])c1)NN1CCCCCC1	%	105
COC1OC2COC(c3ccccc3)OC2C(=O)C1NC(=O)c1ccccc1 (stereo unspecified)	%	83
COc1ccc(C(=O)/C=C/c2cc(-c3ccc(OC)c(OC)c3)n[nH]2)cc1OC	%	-0.863
COc1ccc(COC(=O)CC(C)C)cc1	%	91.9
Cn1cnc([N+](=O)[O-])c1Sc1nnc(-c2ccccc2)c(-c2ccccc2)n1	%	100
O=C(COc1ccc(Cl)cc1Cl)Oc1coc(CSc2nc3ccccc3s2)cc1=O	%	112
COc1ccc(C2C=C(c3ccc(Cl)cc3)N=C3SC=CN32)c(Br)c1 (stereo unspecified)	%	63.6
COc1ccc(S(=O)(=O)Nc2ccc(OCc3nnc(-c4ccc(Cl)cc4)o3)c(F)c2)cc1	%	67.1
C/C(=N\NC(=O)c1sc(=S)n(C)c1N)c1cc2ccccc2o1	%	53
COc1cc(-c2c(C#N)c(N)n3c(nc4ccccc43)c2C#N)cc(Br)c1OC	%	-8.28
CCc1ccc(Nc2cc(C)nc3nc(C)nn23)cc1	%	29.6
CC(C)C(C)C(N)C(=O)O (stereo unspecified)	%	95.2
NC1CCC(Nc2nc(NCc3ccc(-c4cccs4)nc3)c3ncn(C4CCCC4)c3n2)CC1 (stereo unspecified)	%	-63.5
O=C1/C(=C/c2ccc(O)cc2O)N=C2SCCCN12	%	96.2
O=C1c2cc(Cl)ccc2-c2c(O)cc(Cl)cc21	%	81.2
CCOC(=O)C(CCC1=NC(C)(C)CC(C)O1)C(=O)OCC (stereo unspecified)	%	104
COc1cccc2c1C(=O)c1c(O)c3c(c(O)c1C2=O)C[C@@](O)(C(=O)COC(=O)c1ccccc1)C[C@@H]3OC1CC(N)C(O)C(C)O1 (stereo partly specified)	%	-84.3
O=C1/C(=C/c2ccc([N+](=O)[O-])s2)Oc2ccc(Cl)cc21	%	-15
O=C(OCC1OC(n2cc(C(F)(F)F)c(=O)[nH]c2=O)CC1OC(=O)c1ccc([N+](=O)[O-])cc1)c1ccc([N+](=O)[O-])cc1 (stereo unspecified)	%	90.8
COc1ccc(/C(=C/c2cc(OC)c(OC)cc2[N+](=O)[O-])C(=O)O)cc1	%	93.8
COCc1cc2c(cc1Br)OCO2	%	87.1
COc1cccc2c1O/C(=C\c1ncc([N+](=O)[O-])n1C)C2=O	%	39.2
COc1cc(-c2cc(-c3ccc(C)cc3)nc3nc(N)[nH]c(=O)c23)ccc1Oc1ccnc2cc(Cl)ccc12	%	67.5
COc1cc(-c2nc3ccc(C)cc3[nH]2)ccc1OCc1nnc(-c2ccc(CC(C)C)cc2)o1	%	83.9
O=C1CC(c2cccc(-c3cccnc3)c2)=Nc2ccc(Br)cc2N1	%	11.6

====

# System: HT29 colon
# ASSAY NOTES: NCI-60 one-dose screen, 48 h (100 = growth as untreated, 0 = no growth, -100 = all killed)
# CONDITION CONTEXT: 10 µM
Compounds without any hit were thinned out: in the full panel of roughly 83,000, 20% have a hit.
Binary label based on growth with cut-off 70%: below gives Criterion met, not below gives Criterion not met.

COMPOUND	ASSIGNED LABEL
COc1ccc(-c2nnc(COc3ccc(NC(=O)Nc4ccccc4)cc3F)o2)cc1	Criterion not met
O=C(/C=C/c1nnc2n(Cc3ccccc3)c(=O)c3c4c(sc3n12)CCCC4)c1ccccc1	Criterion not met
CC(C)C[C@H](NC(=O)Cn1ccc(Nc2ccccc2)cc1=O)B(O)O	Criterion met
Nc1nc2c(ncn2C2OC3COP(=O)(O)OC4C(COP(=O)(O)OC2C3O)OC(n2cnc3c(N)ncnc32)C4O)c(=O)[nH]1 (stereo unspecified)	Criterion not met
CC(C)C(C)C(N)C(=O)O (stereo unspecified)	Criterion not met
O=S(=O)(NC1c2ccccc2Oc2ccccc21)c1ccccc1	Criterion not met
COc1cc(C)c2sc3ccccc3c(=O)c2c1NCCN(C)C	Criterion met
O=NN(CCCl)C(=O)Nc1ccc(NC(=O)N(CCCl)N=O)cc1	Criterion not met
CC(=O)CS(C)(=O)=O	Criterion not met

====

# Tested on: OVCAR-3 ovarian
# ASSAY NOTES: NCI-60 one-dose screen, 48 h (100 = growth as untreated, 0 = no growth, -100 = all killed)
# CONDITION CONTEXT: 10 µM
Compounds without any hit were thinned out: in the full panel of roughly 83,000, 20% have a hit.
Binary label based on growth with cut-off 20%: below gives 1, not below gives -1.

COMPOUND	TARGET UNDER TEST	ASSIGNED LABEL
CNC(=O)c1cc(Oc2ccc(NC(=O)Nc3ccc(Cl)c(C(C)(C)C)c3)c(F)c2)ccn1	OVCAR-3 ovarian	-1
C/C(=N\NC(=O)c1sc(=S)n(C)c1N)c1cc2ccccc2o1	OVCAR-3 ovarian	-1
COc1ccc2oc(=O)cc(C3c4ccc([nH]4)C(c4cc(=O)oc5ccc(OC)cc45)c4ccc([nH]4)C(c4cc(=O)oc5ccc(OC)cc45)c4ccc([nH]4)C(c4cc(=O)oc5ccc(OC)cc45)c4ccc3[nH]4)c2c1 (centres undefined)	OVCAR-3 ovarian	1
COc1cc(C2c3cc4c(cc3C(O)C(CO)C2CO)OCO4)cc(OC)c1OC (centres undefined)	OVCAR-3 ovarian	1
CCCCCCCC/C=C/CCCCCCCCC1=NCCN1CCO	OVCAR-3 ovarian	-1
CCN(CC)CCOC(=O)c1ccc(N=Nc2ccc(O)c(OC)c2)cc1	OVCAR-3 ovarian	-1
COc1ccc2oc(=O)cc(C(c3ccc[nH]3)c3ccc[nH]3)c2c1	OVCAR-3 ovarian	1
O=NN(CCCl)C(=O)NCc1ccc(-c2ccc(CNC(=O)N(CCCl)N=O)cc2)cc1	OVCAR-3 ovarian	-1
O=NN(CC(=O)N/N=C/C=C\c1ccccc1)CC(=O)N/N=C/C=C/c1ccccc1	OVCAR-3 ovarian	-1
COc1ccc(-c2csc(NC(=O)CO[N+](=O)[O-])n2)cc1	OVCAR-3 ovarian	-1
FC(F)(F)c1ccc(-c2cnc(Cl)nc2NCc2cc(C(F)(F)F)cc(C(F)(F)F)c2)cc1	OVCAR-3 ovarian	1
Cc1cccc2c1O/C(=C\c1ncc([N+](=O)[O-])n1C)C2=O	OVCAR-3 ovarian	1
COc1ccc(C(C)=O)cc1N1C(=O)C2C(C1=O)C1(c3ccccc3)C(=O)C2(c2ccccc2)C(c2ccc(C)cc2)=C1c1ccc(C)cc1 (centres undefined)	OVCAR-3 ovarian	-1
c1ccc(COCC[P+](c2ccccc2)(c2ccccc2)c2ccccc2)cc1	OVCAR-3 ovarian	1
Nc1c(C(=O)Nc2ccccc2F)sc2nc3c(cc12)C(=O)CCC3	OVCAR-3 ovarian	1
Cc1ccc2nc(-c3ccc(OCC(=O)N=Nc4c(O)[nH]c5ccccc45)cc3)[nH]c2c1	OVCAR-3 ovarian	-1
Cc1ccc(S(=O)(=O)Nc2cccc3[nH]c(C(F)(F)F)nc23)cc1	OVCAR-3 ovarian	1
COCCNCC(O)Cn1c2ccc(Cl)cc2c2cc(Cl)ccc21 (centres undefined)	OVCAR-3 ovarian	1
COC(=O)CCCCCCCCC(C)c1ccc(C(C)=O)cc1 (centres undefined)	OVCAR-3 ovarian	-1
CCOC(=O)C(CCC1=NC(C)(C)CC(C)O1)C(=O)OCC (centres undefined)	OVCAR-3 ovarian	-1
C=CCOc1ccc2c(c1)CC=C1[C@@H]2CC[C@]2(C)C(=O)/C(=N/O)C[C@@H]12	OVCAR-3 ovarian	-1
O=C(NCCc1nccs1)c1cnc2c(S)cccc2c1	OVCAR-3 ovarian	1
Cc1cc(Cl)ccc1Nc1nc(C(F)(F)F)ccc1C(=O)N/N=C/c1ccccc1Cl	OVCAR-3 ovarian	1
N#C/C(=C\N1C(=O)/C(=C/c2cccc([N+](=O)[O-])c2)SC1=S)c1nc2ccccc2s1	OVCAR-3 ovarian	-1
CCc1cc2n(n1)-c1ncc(C(=O)OC)cc1Oc1ccccc1-2	OVCAR-3 ovarian	-1
C[C@@H]1N=C(c2ccc(Br)cc2)Nc2nc3ccccn3c2C1=O	OVCAR-3 ovarian	1
CC(=O)Nc1ccc2c(c1)C(N1CC3CCC(CC3)C1)c1ccccc1-2 (centres undefined)	OVCAR-3 ovarian	-1
O=C(O)CCCN1C(=O)NC2(C1=O)c1ccccc1-c1ccccc12	OVCAR-3 ovarian	-1
O=C(O)CCCCSCCCCC(=O)O	OVCAR-3 ovarian	-1
O=[N+]([O-])c1ccc(Br)o1	OVCAR-3 ovarian	-1
CCCOCC(O)CNCCN (centres undefined)	OVCAR-3 ovarian	-1
CCOc1ccc(-n2cc(-c3ccc(N(C)C)cc3)[n+]3c2CCCCC3)cc1	OVCAR-3 ovarian	-1
N=C(N)c1ccc(-c2ccc(-c3ccccc3)s2)cc1F	OVCAR-3 ovarian	1
N=C(N)c1ccc(-c2ccc(-c3ccccc3)s2)s1	OVCAR-3 ovarian	1
